Target: human Nav 1.5 (Homo sapiens (Human), UniProt Q14524)
Sequence (Q14524 whole entry): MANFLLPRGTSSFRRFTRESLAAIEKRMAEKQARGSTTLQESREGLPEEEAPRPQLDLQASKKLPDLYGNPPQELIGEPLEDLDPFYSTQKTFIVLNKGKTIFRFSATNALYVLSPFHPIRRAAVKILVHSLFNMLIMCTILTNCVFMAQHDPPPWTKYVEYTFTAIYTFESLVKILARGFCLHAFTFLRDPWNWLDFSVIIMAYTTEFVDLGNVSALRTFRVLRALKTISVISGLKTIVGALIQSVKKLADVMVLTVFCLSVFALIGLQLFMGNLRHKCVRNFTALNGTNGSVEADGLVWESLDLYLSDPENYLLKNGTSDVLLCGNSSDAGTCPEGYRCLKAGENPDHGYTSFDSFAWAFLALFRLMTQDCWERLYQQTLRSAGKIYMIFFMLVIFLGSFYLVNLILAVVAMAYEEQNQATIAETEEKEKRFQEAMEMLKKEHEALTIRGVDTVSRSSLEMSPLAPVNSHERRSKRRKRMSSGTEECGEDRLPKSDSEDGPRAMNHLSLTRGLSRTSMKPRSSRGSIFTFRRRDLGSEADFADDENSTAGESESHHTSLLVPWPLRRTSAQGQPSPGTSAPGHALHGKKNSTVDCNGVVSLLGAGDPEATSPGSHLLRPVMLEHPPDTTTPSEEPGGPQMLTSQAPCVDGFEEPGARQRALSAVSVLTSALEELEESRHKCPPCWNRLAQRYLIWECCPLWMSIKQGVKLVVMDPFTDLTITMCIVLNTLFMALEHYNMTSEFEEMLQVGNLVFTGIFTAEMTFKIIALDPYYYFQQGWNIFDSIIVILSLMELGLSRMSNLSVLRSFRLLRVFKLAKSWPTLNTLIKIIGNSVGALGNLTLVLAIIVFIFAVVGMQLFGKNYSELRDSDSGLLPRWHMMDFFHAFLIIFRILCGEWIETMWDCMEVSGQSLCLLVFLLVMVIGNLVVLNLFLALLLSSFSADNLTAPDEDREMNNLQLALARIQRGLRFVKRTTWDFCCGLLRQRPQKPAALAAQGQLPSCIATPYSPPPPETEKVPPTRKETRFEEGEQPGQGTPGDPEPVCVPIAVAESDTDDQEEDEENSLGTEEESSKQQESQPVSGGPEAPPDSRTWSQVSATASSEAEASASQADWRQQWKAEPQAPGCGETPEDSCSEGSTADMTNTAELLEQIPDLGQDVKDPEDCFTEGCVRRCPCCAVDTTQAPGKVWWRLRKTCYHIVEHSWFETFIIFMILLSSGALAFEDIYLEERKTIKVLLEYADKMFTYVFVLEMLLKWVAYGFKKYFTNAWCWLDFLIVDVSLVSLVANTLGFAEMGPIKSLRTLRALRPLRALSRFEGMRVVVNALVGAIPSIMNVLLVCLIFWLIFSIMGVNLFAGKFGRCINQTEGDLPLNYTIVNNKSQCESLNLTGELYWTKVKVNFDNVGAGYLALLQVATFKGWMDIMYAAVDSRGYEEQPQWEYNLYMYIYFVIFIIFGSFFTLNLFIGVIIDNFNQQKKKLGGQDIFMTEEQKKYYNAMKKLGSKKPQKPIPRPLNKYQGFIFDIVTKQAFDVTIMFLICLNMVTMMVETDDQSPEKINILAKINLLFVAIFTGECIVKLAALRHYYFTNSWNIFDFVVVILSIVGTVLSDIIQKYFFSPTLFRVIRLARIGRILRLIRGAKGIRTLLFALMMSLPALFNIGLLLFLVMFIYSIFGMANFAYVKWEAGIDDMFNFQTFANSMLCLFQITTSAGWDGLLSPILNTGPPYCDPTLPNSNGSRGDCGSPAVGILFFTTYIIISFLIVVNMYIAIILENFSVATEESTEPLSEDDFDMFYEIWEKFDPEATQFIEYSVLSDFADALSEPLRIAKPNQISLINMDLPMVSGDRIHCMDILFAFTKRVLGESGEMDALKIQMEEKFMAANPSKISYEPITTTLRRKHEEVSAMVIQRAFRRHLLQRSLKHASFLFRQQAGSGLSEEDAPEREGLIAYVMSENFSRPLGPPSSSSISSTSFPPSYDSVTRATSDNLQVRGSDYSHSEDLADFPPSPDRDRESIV
Assay: Nav 1.5 IonWorks Quattro (IWQ) in vitro assay
Type: cell-based
Conditions: in-vitro Nav 1.5 IWQ data; read-out: NAV 1.5 IWQ (IC50)
pIC50: −log10 of the molar value.
Kindly supply the reported pIC50 values for the records listed here.

Ask: # lookup: pIC50 of `CCCS(=O)(=O)NC(=O)c1cc(C)c(-c2cnc(OC3CCC3)c(Cl)c2)cc1F`
Reply: 5.03

Ask: # lookup: pIC50 of `COc1cc(C(=O)NS(C)(=O)=O)ccc1-c1cnc(Oc2cc(Cl)cc(Cl)c2)c(C)c1`
Reply: < 5.52

Ask: # lookup: pIC50 of `Cc1cc(C(=O)NS(=O)(=O)c2nccs2)c(F)cc1-c1cnc(Oc2c(C)cc(Cl)cc2Cl)c(Cl)c1`
Reply: 6.17

Ask: # lookup: pIC50 of COc1cc(C(=O)NS(C)(=O)=O)c(F)cc1-c1cnc(OCc2nc3ccccc3s2)c(Cl)c1 [Example 709]
Reply: < 5.52

Ask: # lookup: pIC50 of `COc1cc(C(=O)NS(C)(=O)=O)ccc1-c1cc(Cl)nc(Oc2cc(Cl)cc(Cl)c2)c1`
Reply: < 5.52

Ask: # lookup: pIC50 of `CNS(=O)(=O)NC(=O)c1ccc(-c2cnc(Oc3cc(Cl)cc(Cl)c3)c(Cl)c2)c(OC)c1`
Reply: < 5.52
